B1: RHOBTB1 (parent)
chain: TFGDHHKDRRFAYGRSDVVVLCFS

Variants of: B1
method: protein stability index of a GFP-peptide fusion (GPS, HEK-293T) (PSI 1-6); higher = more stable;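 also: lentivirally expressed fusions sorted by FACS into six bins by GFP to DsRed ratio, PSI derived from sequencing read proportions per bin multiplied by bin number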
experimental context: c terminus: a fixed tail appended
Threshold check on protein stability index: at or above 2 gives y, strictly below gives n.

q: Please indicate if the recorded protein stability index for "H5P" meets or exceeds 2.
a: y

q: Please indicate if the recorded protein stability index for "D4P" meets or exceeds 2.
a: y

q: Please indicate if the recorded protein stability index for "H6Q" meets or exceeds 2.
a: y

q: Please indicate if the recorded protein stability index for "C22L" meets or exceeds 2.
a: y

q: Please indicate if the recorded protein stability index for "V20C" meets or exceeds 2.
a: n

q: Please indicate if the recorded protein stability index for "C22G" meets or exceeds 2.
a: y

q: Please indicate if the recorded protein stability index for "F23R" meets or exceeds 2.
a: y

q: Please indicate if the recorded protein stability index for "C22S" meets or exceeds 2.
a: n

q: Please indicate if the recorded protein stability index for "R10C" meets or exceeds 2.
a: y

q: Please indicate if the recorded protein stability index for "R9H" meets or exceeds 2.
a: y

q: Please indicate if the recorded protein stability index for "V19L" meets or exceeds 2.
a: y

q: Please indicate if the recorded protein stability index for "Y13N" meets or exceeds 2.
a: y

q: Please indicate if the recorded protein stability index for "F11K" meets or exceeds 2.
a: n

q: Please indicate if the recorded protein stability index for "R10G" meets or exceeds 2.
a: y

q: Please indicate if the recorded protein stability index for "R10T" meets or exceeds 2.
a: y

q: Please indicate if the recorded protein stability index for "R9D" meets or exceeds 2.
a: y

q: Please indicate if the recorded protein stability index for "V20K" meets or exceeds 2.
a: n
